We begin with a simple list: items and their reported IC50.
target: Neuropeptide S receptor (Homo sapiens, UniProt Q6W5P4); experiment: Antagonist activity at neuropeptide S receptor (unknown origin) assessed as cAMP level by cell based assay; type: functional
Sequence (Q6W5P4 whole entry): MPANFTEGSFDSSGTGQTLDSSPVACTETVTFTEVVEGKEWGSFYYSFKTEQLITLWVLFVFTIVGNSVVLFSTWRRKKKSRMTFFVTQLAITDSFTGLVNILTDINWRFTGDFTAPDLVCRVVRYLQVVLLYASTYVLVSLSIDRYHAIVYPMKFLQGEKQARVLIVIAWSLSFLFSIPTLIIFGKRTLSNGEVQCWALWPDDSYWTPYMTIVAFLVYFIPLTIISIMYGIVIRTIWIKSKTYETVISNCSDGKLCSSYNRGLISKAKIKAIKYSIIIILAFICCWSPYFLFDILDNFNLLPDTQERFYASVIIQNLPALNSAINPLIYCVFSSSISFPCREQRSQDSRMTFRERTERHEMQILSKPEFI
PROPERTY MEASURED: IC50

- COc1ccc(C2c3c(ccc4ccccc34)OC3N=CN(CCN4CCOCC4)C(=N)C32)cc1OC (stereo not drawn): 4900 nM
- O=C(NCc1ccc(F)cc1)N1CCN2C(=O)OC(c3ccccc3)(c3ccccc3)C2C1 (stereo not drawn): 420 nM
- Cc1c(P(=S)(c2ccccc2)c2ccccc2)[n+]2ccccc2n1C.[I-]: 1700 nM

###

target: Neuropeptide S receptor (Homo sapiens, UniProt Q6W5P4); assay: Antagonist activity at neuropeptide S receptor (unknown origin) expressed in CHO cells assessed as cAMP level after 30 mins by […] assay; assay type: functional, cell-based; details: cho
PROPERTY MEASURED: IC50

* Cc1c(P(=S)(c2ccccc2)c2ccccc2)c2ccccc2n1C | Not Active
* c1ccc(P(c2ccccc2)c2cnc3ccccn23)cc1 | Not Active
* Cc1nc2ccccn2c1P(=O)(c1ccccc1)c1ccccc1 | Not Active
* Cn1cc(P(=S)(c2ccccc2)c2ccccc2)c2ccccc21 | Not Active

###

assay: Plasma concentration in mouse at 10 mg/kg, ip after 8 hrs; type: ADME, organism-based; parameters: dose 10 mg/kg, route intraperitoneal
PROPERTY MEASURED: concentration at 8 h (µM)

- Cc1c(P(=S)(c2ccccc2)c2ccccc2)n2ccccc2[n+]1C/C=C/c1ccccc1.[Br-]: 0.214

###

assay: Ratio of AUC in brain to AUC in plasma in mouse at 10 mg/kg, ip; format: ADME, organism-based; design: dose 10 mg/kg, route intraperitoneal; settings: brain and plasma, read-out: Ratio AUC
PROPERTY MEASURED: Kp

• Cc1c(P(=S)(c2ccccc2)c2ccccc2)n2ccccc2[n+]1C/C=C/c1ccccc1.[Br-] = 33

###

biological target: Neuropeptide S receptor (Homo sapiens, UniProt Q6W5P4); assay: Antagonist activity at neuropeptide S receptor (unknown origin) expressed in CHO cells assessed as cAMP level after 30 mins by […] assay; type: functional, cell-based; details: read-out: IC50
pIC50: −log10 of the molar value.
PROPERTY MEASURED: pIC50

* Cc1c(P(=S)(c2ccccc2)c2ccccc2)n2ccccc2[n+]1C/C=C/c1ccc(F)c(Br)c1 | 6.08
* O=C(NCc1ccc(F)cc1)N1CCN2C(=O)OC(c3ccccc3)(c3ccccc3)C2C1 (centres undefined) | 8.28
* Cc1c(P(=S)(c2ccccc2)c2ccccc2)n2ccccc2[n+]1Cc1ccccc1 | 5.89
* Cc1c(P(=S)(c2ccccc2)c2ccccc2)n2ccccc2[n+]1CCCCc1ccccc1 | 6.03
* S=P(c1ccccc1)(c1ccccc1)c1cnc2ccccn12 | 4.20
* C[n+]1cc(P(=S)(c2ccccc2)c2ccccc2)n2ccccc21 | 4.41
* Cc1c(P(=S)(c2ccccc2)c2ccccc2)n2ccccc2[n+]1CCCCCc1ccccc1 | 6.15
* COc1cccc(/C=C/C[n+]2c(C)c(P(=S)(c3ccccc3)c3ccccc3)n3ccccc32)c1 | 6.96
* Cc1c(P(=S)(c2ccccc2)c2ccccc2)n2ccccc2[n+]1C/C=C/c1ccc2ccccc2c1 | 5.89

###

test: Drug level in mouse brain after 15 mins; assay type: ADME, tissue-based; conditions: read-out: Drug uptake
PROPERTY MEASURED: concentration at 0.25 h (µM)

- O=C(NCc1ccc(F)cc1)N1CCN2C(=O)OC(c3ccccc3)(c3ccccc3)C2C1 (stereo unspecified): 6

# credit: ChEMBL document CHEMBL3085664
